List of melting point values.

compound	melting point
Cc1csc(NCCc2ccccc2)n1	80 to 82 °C
O=C(O)c1cc(Cl)c2c(c1)OCCO2	251 to 253 °C
CCC(=O)Nc1ccc(N)cc1	82 to 84 °C
O=C(O)CNC(=O)OCC(F)(F)F	98 to 100 °C
COc1cc(C(C)=O)ccc1OCCCC(=O)O	163 to 165 °C
Cc1c(CCC(=O)O)c(=O)[nH]c2c1c(=O)[nH]n2C	304 to 306 °C
COc1ccc(CC(=O)O)cc1F	110 to 112 °C
Nc1ccc(N2CCNC(=O)C2)cc1	167 to 169 °C
O=C(O)C(Oc1ccc(Br)cc1F)c1ccccc1 (centres undefined)	104 to 106 °C
CCNC(=O)c1ccc(Cl)nc1	136 to 138 °C
O=C(O)c1ccc(COc2ccc3ccccc3c2)o1	171 to 173 °C
Brc1cc[nH]n1	74 to 76 °C
Cc1n[nH]c(SCC(=O)O)n1	228 to 230 °C
Cc1ncc(Br)c(N)n1	109 to 111 °C
CCOc1ccc(Br)cc1S(=O)(=O)NC	107 to 109 °C
CCc1c(C(C)O)oc2ccccc12 (centres undefined)	66 to 68 °C
Cc1ccccc1-c1noc(CC#N)n1	79 to 83 °C
C#CCNC(=O)Nc1ccccc1[N+](=O)[O-]	190 to 192 °C
O=c1c2ccc(C(F)(F)F)cc2nc2n1CCC2	156 to 158 °C
O=C(O)c1cccc(N2CCOC2=O)c1	214 to 216 °C
O=C(O)c1cc([N+](=O)[O-])cc2c1OCCO2	248 to 250 °C
Cc1ccc(N2C(=O)CSC2=S)cc1	168 to 170 °C
Clc1cc(-c2ncc[nH]2)ccn1	187 to 189 °C
Nc1nc(-c2ccc3c(c2)CCO3)cs1	173 to 175 °C
N#Cc1cc(F)c(C(=O)O)c(F)c1	189 to 191 °C
CS(=O)(=O)Nc1ccccc1F	75 to 77 °C
O=C1NCc2ccccc2N1CCO	107 to 109 °C
CCn1nc(C(=O)O)c(=O)c2ccccc21	210 to 212 °C
O=C(NCC(F)(F)F)c1ccc(S(=O)(=O)Cl)cc1	139 to 141 °C
